# assayText: Downregulation of AR protein expression in human LAPC4 cells assessed as AR levels at 10 uM incubated for 24 hrs by immunoblotting analysis
# Assay type: functional
parameterMeasured: Activity

Cn1nc2c(c1-c1cccs1)C[C@@]1(C)[C@@H](CC[C@@H]3[C@@H]1CC[C@]1(C)[C@@H](O)CC[C@@H]31)C2 = 87%
C[C@]12Cc3c(nn(-c4ccccc4)c3-c3ccc(Cl)cc3)C[C@@H]1CC[C@@H]1[C@@H]2CC[C@]2(C)[C@@H](O)CC[C@@H]12 = >=100%
Cc1c2c(nn1C)C[C@@H]1CC[C@@H]3[C@H](CC[C@]4(C)[C@@H](O)CC[C@@H]34)[C@@]1(C)C2 = 98%
Cn1nc2c(c1-c1ccc(Br)cc1)C[C@@]1(C)[C@@H](CC[C@@H]3[C@@H]1CC[C@]1(C)[C@@H](O)CC[C@@H]31)C2 = 79%

### Prompt Give the value of Activity reported for the following: C[C@]12Cc3cnn(-c4ccccc4)c3C[C@@H]1CC[C@@H]1[C@@H]2CC[C@]2(C)[C@@H](O)CC[C@@H]12
### Response >=100%

### Prompt Recall and state the measured Activity for C[C@]12Cc3cnn(-c4ccc(Cl)cc4)c3C[C@@H]1CC[C@@H]1[C@@H]2CC[C@]2(C)[C@@H](O)CC[C@@H]12 .
### Response >=100%

---

# Test system: LAPC4
# assayText: Cytotoxicity against human LAPC4 cells assessed as cell viability at 20 uM incubated for 72 hrs by resazurin dye based microplate reader assay
# Type: functional
# conditionSummary: read-out: Activity
For each of the compounds below, state its viability at 20 µM.
Provide only the numeric value, understood in %.

### Prompt Identify viability at 20 µM associated with the compound Cn1nc2c(c1-c1ccco1)C[C@@]1(C)[C@@H](CC[C@@H]3[C@@H]1CC[C@]1(C)[C@@H](O)CC[C@@H]31)C2
### Response 50

### Prompt Tell me viability at 20 µM reported for C[C@]12Cc3cn(-c4ccc(Br)cc4)nc3C[C@@H]1CC[C@@H]1[C@@H]2CC[C@]2(C)[C@@H](O)CC[C@@H]12
### Response 79

### Prompt In one line, give reported viability at 20 µM of the entry Cc1c2c(nn1-c1ccccc1)C[C@@H]1CC[C@@H]3[C@H](CC[C@]4(C)[C@@H](O)CC[C@@H]34)[C@@]1(C)C2 .
### Response 65

### Prompt Read off the recorded viability at 20 µM for C[C@]12Cc3c(nn(-c4ccccc4)c3-c3ccc(Cl)cc3)C[C@@H]1CC[C@@H]1[C@@H]2CC[C@]2(C)[C@@H](O)CC[C@@H]12
### Response 30

### Prompt Supply reported viability at 20 µM belonging to this compound: Cn1nc2c(c1-c1ccc(F)cc1)C[C@@]1(C)[C@@H](CC[C@@H]3[C@@H]1CC[C@]1(C)C(=O)CC[C@@H]31)C2
### Response 29

### Prompt Provide one value: measured viability at 20 µM of Cc1c2c(nn1-c1ccc(C#N)cc1)C[C@@H]1CC[C@@H]3[C@H](CC[C@]4(C)[C@@H](O)CC[C@@H]34)[C@@]1(C)C2
### Response 73

---

# System: LAPC4
# assayText: Inhibition of colony formation in human LAPC4 cells at 10 uM incubated for 10 days by crystal violet staining based assay
# Type: functional
# conditionSummary: LAPC4, 240 h, time 10 day
parameterMeasured: inhibition at 10 µM

### Prompt Please report the measured inhibition at 10 µM for C[C@]12Cc3c(nn(-c4ccccc4)c3-c3ccccc3)C[C@@H]1CC[C@@H]1[C@@H]2CC[C@]2(C)[C@@H](O)CC[C@@H]12
### Response ≥ 100%

### Prompt Retrieve inhibition at 10 µM measured for Cc1ccc(-n2nc3c(c2C)C[C@@]2(C)[C@@H](CC[C@@H]4[C@@H]2CC[C@]2(C)[C@@H](O)CC[C@@H]42)C3)cc1 and print it.
### Response 2%

### Prompt Retrieve inhibition at 10 µM measured for Cn1nc2c(c1-c1ccco1)C[C@@]1(C)[C@@H](CC[C@@H]3[C@@H]1CC[C@]1(C)[C@@H](O)CC[C@@H]31)C2 and print it.
### Response 2%

### Prompt Report measured inhibition at 10 µM; entry is Cc1c2c(nn1C)C[C@@H]1CC[C@@H]3[C@H](CC[C@]4(C)C(=O)CC[C@@H]34)[C@@]1(C)C2
### Response 67%

### Prompt Recall and state the measured inhibition at 10 µM for Cn1nc2c(c1-c1ccc(Br)cc1)C[C@@]1(C)[C@@H](CC[C@@H]3[C@@H]1CC[C@]1(C)C(=O)CC[C@@H]31)C2 .
### Response 15%

### Prompt Supply inhibition at 10 µM value. Item: Cn1nc2c(c1-c1ccc(F)cc1)C[C@@]1(C)[C@@H](CC[C@@H]3[C@@H]1CC[C@]1(C)[C@@H](O)CC[C@@H]31)C2
### Response 16%

### Prompt Supply reported inhibition at 10 µM belonging to this compound: Cc1c2c(nn1C)C[C@@H]1CC[C@@H]3[C@H](CC[C@]4(C)[C@@H](O)CC[C@@H]34)[C@@]1(C)C2
### Response 36%

### Prompt Please list inhibition at 10 µM recorded for the compound Cc1c2c(nn1-c1ccc([N+](=O)[O-])cc1)C[C@@H]1CC[C@@H]3[C@H](CC[C@]4(C)C(=O)CC[C@@H]34)[C@@]1(C)C2
### Response 26%

### Prompt Name the recorded inhibition at 10 µM of the item Cc1c2c(nn1-c1ccc(Cl)cc1)C[C@@H]1CC[C@@H]3[C@H](CC[C@]4(C)C(=O)CC[C@@H]34)[C@@]1(C)C2 in your answer.
### Response 16%

### Prompt Using the record for C[C@]12Cc3c(nn(-c4ccccc4)c3-c3ccc(O)cc3)C[C@@H]1CC[C@@H]1[C@@H]2CC[C@]2(C)C(=O)CC[C@@H]12 , state its measured inhibition at 10 µM.
### Response 39%

### Prompt Provide measured inhibition at 10 µM value, entry: C[C@]12Cc3cn(-c4ccc([N+](=O)[O-])cc4)nc3C[C@@H]1CC[C@@H]1[C@@H]2CC[C@]2(C)[C@@H](O)CC[C@@H]12
### Response 93%

---

# Tested on: CWR22R
# assayText: Cytotoxicity against human 22Rv1 cells assessed as cell viability at 20 uM incubated for 72 hrs by resazurin dye based microplate reader assay
# Format: functional
# conditionSummary: read-out: Activity
parameterMeasured: viability at 20 µM

### Prompt Tell us which viability at 20 µM value is on record for COc1ccc(-c2c3c(nn2C)C[C@@H]2CC[C@@H]4[C@H](CC[C@]5(C)C(=O)CC[C@@H]45)[C@@]2(C)C3)cc1
### Response 58%

### Prompt Please supply the value of reported viability at 20 µM for the item C[C@]12Cc3cnn(-c4ccc(F)cc4)c3C[C@@H]1CC[C@@H]1[C@@H]2CC[C@]2(C)[C@@H](O)CC[C@@H]12
### Response 57%

### Prompt Answer with the recorded viability at 20 µM for the molecule listed here: Cc1c2c(nn1-c1ccc(F)cc1)C[C@@H]1CC[C@@H]3[C@H](CC[C@]4(C)C(=O)CC[C@@H]34)[C@@]1(C)C2
### Response 75%

### Prompt Consider the molecule Cn1nc2c(c1-c1ccc(Br)cc1)C[C@@]1(C)[C@@H](CC[C@@H]3[C@@H]1CC[C@]1(C)C(=O)CC[C@@H]31)C2 and give its recorded viability at 20 µM.
### Response 56%

### Prompt Consider the molecule Cn1nc2c(c1-c1ccco1)C[C@@]1(C)[C@@H](CC[C@@H]3[C@@H]1CC[C@]1(C)C(=O)CC[C@@H]31)C2 . State its measured viability at 20 µM.
### Response 43%

### Prompt Write down viability at 20 µM measured for item C[C@]12Cc3cn(-c4ccccc4)nc3C[C@@H]1CC[C@@H]1[C@@H]2CC[C@]2(C)[C@@H](O)CC[C@@H]12
### Response ≥ 100%

### Prompt Provide measured viability at 20 µM value, entry: C[C@]12Cc3c(nn(-c4ccccc4)c3-c3ccc(Cl)cc3)C[C@@H]1CC[C@@H]1[C@@H]2CC[C@]2(C)[C@@H](O)CC[C@@H]12
### Response 4%

### Prompt Hello, please tell me recorded viability at 20 µM for this one: C[C@]12Cc3cnn(-c4ccccc4)c3C[C@@H]1CC[C@@H]1[C@@H]2CC[C@]2(C)[C@@H](O)CC[C@@H]12
### Response 36%

### Prompt Answer with the recorded viability at 20 µM of C[C@]12CC[C@H](O)CC1=CC[C@@H]1[C@@H]2CC[C@]2(C)C(c3cccnc3)=CC[C@@H]12 only.
### Response ≥ 100%

---

# System: LAPC4
# assayText: Inhibition of colony formation in human LAPC4 cells at 10 uM incubated for 10 days by crystal violet staining based assay
# Format: functional
# conditionSummary: LAPC4, 240 h, time 10 day
parameterMeasured: inhibition at 10 µM (%)
Enter your answer as a number in %; do not include the unit.

### Prompt # return recorded inhibition at 10 µM for input Cc1ccc(-n2cc3c(n2)C[C@@H]2CC[C@@H]4[C@H](CC[C@]5(C)[C@@H](O)CC[C@@H]45)[C@@]2(C)C3)cc1
### Response 42

### Prompt For the compound Cc1c2c(nn1-c1ccc(F)cc1)C[C@@H]1CC[C@@H]3[C@H](CC[C@]4(C)[C@@H](O)CC[C@@H]34)[C@@]1(C)C2 , report inhibition at 10 µM.
### Response 3

### Prompt Specify inhibition at 10 µM for Cc1ccc(-c2c3c(nn2C)C[C@@H]2CC[C@@H]4[C@H](CC[C@]5(C)C(=O)CC[C@@H]45)[C@@]2(C)C3)cc1 and stop.
### Response 23

### Prompt For the compound COc1ccc(-c2c3c(nn2C)C[C@@H]2CC[C@@H]4[C@H](CC[C@]5(C)C(=O)CC[C@@H]45)[C@@]2(C)C3)cc1 , give its measured inhibition at 10 µM value.
### Response 34

### Prompt Give the reported value of inhibition at 10 µM for this record: C[C@]12Cc3cnn(-c4ccc(F)cc4)c3C[C@@H]1CC[C@@H]1[C@@H]2CC[C@]2(C)[C@@H](O)CC[C@@H]12
### Response 1

### Prompt Check the records and state inhibition at 10 µM for COc1ccc(-n2nc3c(c2C)C[C@@]2(C)[C@@H](CC[C@@H]4[C@@H]2CC[C@]2(C)[C@@H](O)CC[C@@H]42)C3)cc1
### Response 7

### Prompt Give the value of inhibition at 10 µM reported for the following: COc1ccc(-n2nc3c(c2C)C[C@@]2(C)[C@@H](CC[C@@H]4[C@@H]2CC[C@]2(C)C(=O)CC[C@@H]42)C3)cc1
### Response 20

### Prompt Tell me inhibition at 10 µM reported for C[C@]12Cc3cnn(-c4ccc(Br)cc4)c3C[C@@H]1CC[C@@H]1[C@@H]2CC[C@]2(C)[C@@H](O)CC[C@@H]12
### Response 1

### Prompt Determine from records and report inhibition at 10 µM for Cn1nc2c(c1-c1ccco1)C[C@@]1(C)[C@@H](CC[C@@H]3[C@@H]1CC[C@]1(C)C(=O)CC[C@@H]31)C2
### Response 5
